Could you please report measured normalized growth for the items listed next?
Assay: chemical genetic growth profiling, strain panel (AID 1159580);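 further: tested at 20 µM; growth read once vehicle control cultures reached saturation at 30 °C; 1 = growth at the plate median or of vehicle wells; lower values mean less growth of the strain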
Conditions: S. cerevisiae deletion strains, growth OD, locus YLL026W, active compounds read low
Out of some 5,500 compounds screened, about 2,000 (36%) were called active. Another 18% or so got no clear call; they are omitted. This is one part of the list.
Numbers only.

Some solved entries appear below for comparison.
Molecule	Measured quantity	Recorded result
CC(=O)Oc1ccccc1C(=O)Oc1ccccc1C(=O)O	normalized growth	1.01
O=C(CCCN1CCN(c2ccccn2)CC1)c1ccc(F)cc1	normalized growth	0.987
CC(=O)N1CCN(c2ccc(OCC3CO[C@](Cn4ccnc4)(c4ccc(Cl)cc4Cl)O3)cc2)CC1 (stereo partly specified)	normalized growth	0.0778
COC1C(O)C(O[C@H]2CC[C@]3(C=O)C4C(CC[C@]3(O)C2)[C@@]2(O)CC[C@H](C3=CC(=O)OC3)[C@@]2(C)C[C@H]4OC(C)=O)OC(C)C1OC(C)=O (stereo partly specified)	normalized growth	1

For every item below, please supply its normalized growth.
1. CC12CCC(=O)C=C1CCc1ccccc12 (stereo unspecified)
2. CC(C)C[C@@H](NC(=O)OCC1c2ccccc2-c2ccccc21)C(=O)O
3. NCCCN
4. OC1(c2ccc(Cl)c(C(F)(F)F)c2)CCN(CCCC(c2ccc(F)cc2)c2ccc(F)cc2)CC1
5. Oc1ccc([C@H]2Oc3cc(O)cc(O)c3C[C@H]2O)cc1
6. CC1CCCC(C)N1NC(=O)c1ccc(Cl)c(S(N)(=O)=O)c1 (stereo unspecified)

1: 0.979; 2: 0.992; 3: 0.988; 4: 0.0586; 5: 0.993; 6: 1.02

For every item below, please supply its normalized growth.
1. Cc1c(C(N)=O)cc([N+](=O)[O-])cc1[N+](=O)[O-]
2. COC(=O)N/N=C\c1c[n+]([O-])c2ccccc2[n+]1[O-]
3. COc1cccc2c1CCC1=CC(=O)CC[C@@]12C
4. CCCc1nn(C)c2c(=O)[nH]c(-c3cc(S(=O)(=O)N4CCN(C)CC4)ccc3OCC)nc12
5. CC(C)(C)NCC(O)COc1cccc2c1CCCC2=O (stereo unspecified)

1. 1.02
2. 0.98
3. 0.992
4. 0.985
5. 0.993
